These entries and their values trace back to patent US20190169286A1.

# system_tested: T1, human IL-8 (human, UniProt P10145 23-99, limits assumed)
# T1 construct: also called hIL-8; hIL8
# protocol_summary: SPR Biacore T200, Protein A/G capture, pH 5.8, 37C;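 further: antibodies captured by Protein A/G amine-coupled onto a CM4 sensor chip, with kinetic parameters derived using Biacore T200 Evaluation Software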
assay_readout: pKd
Remember the convention: pKd equals -log10 of concentration in molar.

* H1049/L0442 (antibody, human IgG1, kappa, name in Kabat numbering, V domains shown, L442 = L395 + S31E) VH: QVQLVESGGGLVQPGGSLRLSCAASGFTFDKYYLSWVRQAPGKGLEWVGLIRNKDNYHTPEYSASVKGRFTISRDDSKNSLYLTMSDLKTEDTAVYYCARENHRYDVELAYWGQGTLVTVSS VL: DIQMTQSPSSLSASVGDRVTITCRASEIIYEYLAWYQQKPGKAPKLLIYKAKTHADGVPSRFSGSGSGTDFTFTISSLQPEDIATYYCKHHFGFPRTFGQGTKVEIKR | 7.48
* H1040/L0395 (antibody, human IgG1, kappa, name in Kabat numbering, V domains shown) VH: QVQLVESGGGLVQPGGSLRLSCAASGFTFSEYYLSWVRQAPGKGLEWVGLIRNKDNHHHPEYSASVKGRFTISRDDSKNSLYLTMSDLKTEDTAVYYCARENHRYDVELAYWGQGTLVTVSS VL: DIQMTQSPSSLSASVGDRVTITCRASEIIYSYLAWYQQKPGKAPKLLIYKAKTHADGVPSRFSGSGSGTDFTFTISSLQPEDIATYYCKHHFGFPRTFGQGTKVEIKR | 6.62

Next item in the queue.
INPUT: Give the reported value of pKd for this record: H1046/L0395 (antibody, human IgG1, kappa, name in Kabat numbering, V domains shown) VH: QVQLVESGGGLVQPGGSLRLSCAASGFTFSEYYLSWVRQAPGKGLEWVGLIRNKDNYHHPEYSASVKGRFTISRDDSKNSLYLTMSDLKTEDTAVYYCARENHRYDVELAYWGQGTLVTVSS VL: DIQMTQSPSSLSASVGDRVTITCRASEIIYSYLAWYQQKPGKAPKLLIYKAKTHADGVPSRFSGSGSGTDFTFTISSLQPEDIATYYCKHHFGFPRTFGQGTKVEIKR
OUTPUT: 6.80
